tgt: T1, human VPAC2 receptor (human, UniProt P41587 24-438)
T1 sequence (looked up): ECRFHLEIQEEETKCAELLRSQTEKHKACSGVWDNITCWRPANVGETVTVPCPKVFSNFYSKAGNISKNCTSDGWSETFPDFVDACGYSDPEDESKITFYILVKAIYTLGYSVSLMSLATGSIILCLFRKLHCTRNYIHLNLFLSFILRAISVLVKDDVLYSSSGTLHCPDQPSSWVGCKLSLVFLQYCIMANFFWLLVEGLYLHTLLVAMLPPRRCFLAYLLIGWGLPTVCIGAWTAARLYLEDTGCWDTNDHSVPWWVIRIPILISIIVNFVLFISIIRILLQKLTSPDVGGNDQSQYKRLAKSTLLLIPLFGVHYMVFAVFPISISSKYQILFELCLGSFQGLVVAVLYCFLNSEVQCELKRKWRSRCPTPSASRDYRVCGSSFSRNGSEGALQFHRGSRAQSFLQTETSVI
measurement_notes: cell-based or functional assay
Where no end group is shown, it is not given here. [ ]: non-standard residue; d: D form. The star is where a group is joined. Hexanoyl = CCCCCC(=O)*
Define the label as T when EC50 cAMP, Alpha Screen is strictly less than 0.2 nM and as F in all remaining cases.

Examples from the recorded data:
[[record]]
binder = "[dH]SDAVFTDNYTRLRKQVAAKKYLQSIKNKRYGGPSSGAPPPS [P84]"
label_class = "F"

[[record]]
binder = "Hexanoyl-HSDAVFTDNYTRLLAKVAAKKYLQSIKNKRYGGPSSGAPPPS [P135]"
label_class = "T"

[[record]]
binder = "Hexanoyl-HSDAVFTDNYTRLRKQVAAKKYLQSIKNSRGGPSSGAPPPS [P122]"
label_class = "T"


EC50 cAMP, Alpha Screen under 0.2 nM? Item: Hexanoyl-HSDAVFTDNYTRLLAQLALQKYLQSIKNKRYGGPSSGAPPPS [P195] F

// same read-out, input: Hexanoyl-HSDAVFTDNYTRLRK(Ac)QVAAKK(Ac)YLQSIKNKRYGGPSSGAPPPS [P194] T

Now the same for Hexanoyl-HSDAVFTDNYTRLRKQVAAKKTLQSIKNKRYGGPSSGAPPPS [P131] F
